Each recorded value in this set is attributed to ChEMBL document CHEMBL1154470.

Exercise: for every item that follows, state its recorded MIC.
Tested on: Bacillus subtilis
METHOD_DESCRIPTION: Antibacterial activity against Bacillus subtilis by serial dilution method
Format: functional
Give bare numbers, in µg/mL.

Examples with answers:
# STRUCTURE_SMILES, UNITS_TEXT, RESULT_NUMBER
measured = [
    ("Nn1c(SCC(=O)c2c([O-])on[n+]2-c2ccccc2)nnc(Cc2ccccc2)c1=O", "µg/mL", 0.25),
    ("NC(=O)N/N=C/c1ccc([N+](=O)[O-])o1", "µg/mL", 0.5),
    ("COc1ccc(-[n+]2noc([O-])c2C(=O)CSc2nnc(Cc3ccc(Cl)cc3)c(=O)n2N)cc1", "µg/mL", 0.25),
    ("Nn1c(SCC(=O)c2c([O-])on[n+]2-c2ccccc2)nnc(Cc2ccc(Br)cc2)c1=O", "µg/mL", 0.25),
]

Now take the following compound into account.
Which measured MIC value corresponds to Cc1ccc(-[n+]2noc([O-])c2C(=O)CSc2nnc(Cc3ccccc3)c(=O)n2N)cc1 ?
0.25
